tested-system: PxutCSP19 (Papilio xuthus)
measure-name: pKd
The scale used: pKd is minus the common logarithm of the concentration in molar units.

Problem: Give reported pKd for c1ccc(Nc2cccc3ccccc23)cc1 [1-NPN, N-phenyl-1-naphthylamine] (PxutCSP19 (Papilio xuthus))
Result: 5.58

---

Listed here are molecules together with their documented F.D. (fluorescent displacement rate of ligands).
tested-system: PxutCSP19 (Papilio xuthus)
procedure-summary: Fluorescence competitive binding assay (1-NPN displacement), wildtype PxutCSP19
conditions: Wildtype (WT); ligand at 20 μM; PxutCSP19/1-NPN each 2 μM; NB = no binding
// note: answer is a bare numeric in %

// solved cases for F.D. (fluorescent displacement rate of ligands) follow
1) Cc1ccc(C(C)C)cc1 = 32.32
2) CC1(C)[C@H]2O[C@H]2[C@H]2[C@](C)(O)[C@@H]3CC[C@@H]4[C@@H](O)[C@@]3(C[C@@H](O)[C@@]21O)C[C@@]4(C)O [Rhodojaponin III, reference compound] = 38.52
3) CC(C)=CCC[C@@H](C)CC=O = 34.20
4) C=C(C)[C@H]1CC=C(C)CC1 = 20.36

Problem: Indicate the recorded F.D. (fluorescent displacement rate of ligands) value for this molecule: COC(=O)c1ccccc1C [Methyl o-toluate]
Result: 37.28

---

tested-system: PxutCSP19-T2 (Papilio xuthus, UniProt A0A194QJK0)
procedure-summary: Binding of fluorescent probe 1-NPN to PxutCSP19-T2 (titration, Scatchard)
conditions: read-out: K1-NPN (binding constant of 1-NPN)
measure-name: Kd (µM)
// note: answer is a bare numeric in µM

Problem: Indicate the recorded Kd value for this compound: c1ccc(Nc2cccc3ccccc23)cc1 [1-NPN, N-phenyl-1-naphthylamine]
Result: 2.5

---

tested-system: PxutCSP19 (Papilio xuthus)
procedure-summary: Fluorescence competitive binding assay (1-NPN displacement), wildtype PxutCSP19
conditions: Wildtype (WT); ligand up to 20 μM or 36 μM; displacing half of protein/1-NPN fluorescence; read-out: IC50
Listed here are molecules together with their documented IC50.

1) O=C(NC(=O)c1ccccc1Cl)Nc1ccc(Cl)cc1 [Chlorbenzuron, reference compound] = > 20 µM
2) CC(C)=CCC[C@@H](C)CC=O = > 20 µM
3) C=C(C)[C@H]1CC=C(C)CC1 = > 20 µM
4) COP(=O)(OC)C(O)C(Cl)(Cl)Cl (centres unmarked) [Trichlorphon, reference compound] = > 20 µM
5) C/C1=C\CC/C(C)=C/CC(C)(C)/C=C/C1 = > 20 µM
6) Cc1ccc(C(C)C)cc1 = > 20 µM
7) COC(=O)c1ccccc1C [Methyl o-toluate] = > 20 µM

Problem: Give reported IC50 for CC1(C)[C@H]2O[C@H]2[C@H]2[C@](C)(O)[C@@H]3CC[C@@H]4[C@@H](O)[C@@]3(C[C@@H](O)[C@@]21O)C[C@@]4(C)O [Rhodojaponin III, reference compound] (PxutCSP19 (Papilio xuthus))
Result: > 20 µM

---

tested-system: PxutCSP19-T1 (Papilio xuthus, UniProt A0A194QJK0)
procedure-summary: Fluorescence competitive binding assay (1-NPN displacement), truncated PxutCSP19-T1
measure-name: pIC50
The scale used: pIC50 is minus the common logarithm of the concentration in molar units.

// solved cases for pIC50 follow
1) CCOP(=S)(OCC)O/N=C(\C#N)c1ccccc1 = 5.58
2) CCOP(=S)(OCC)Oc1nc(Cl)c(Cl)cc1Cl = 5.23

Proceeding to the next compound to report its pIC50.
Problem: Indicate the recorded pIC50 value for this compound: "C=C(C)[C@H]1Cc2c(ccc3c2O[C@@H]2COc4cc(OC)c(OC)cc4[C@@H]2C3=O)O1"
Result: 4.95

---

tested-system: PxutCSP19 (Papilio xuthus, UniProt A0A194QJK0)
procedure-summary: Fluorescence competitive binding assay (1-NPN displacement), wildtype PxutCSP19
conditions: read-out: F.D. (fluorescent displacement rate of ligands), Wildtype (WT); ligand at 20 μM; PxutCSP19/1-NPN each 2 μM; NB = no binding
Listed here are compounds together with their documented inhibition at 20 µM.

1) CCCCCC=O = 21.1%
2) CN(C)C(CSS(=O)(=O)O)CSS(=O)(=O)O = 53.6%
3) CCCCCCCCC=O = 29.3%
4) CC1=CC[C@@H]2C[C@H]1C2(C)C [(1R)-(+)-α-Pinene] = 38.4%
5) O=[N+]([O-])NC1=NCCN1Cc1ccc(Cl)nc1 [Imidacloprid, reference compound] = 41.7%

Proceeding to the next compound to report its inhibition at 20 µM.
Problem: Indicate the recorded inhibition at 20 µM value for this compound: "CC1=CCC(C(C)C)=CC1"
Result: > 40%

---

Listed here are molecules together with their documented IC50.
tested-system: PxutCSP19 (Papilio xuthus)
procedure-summary: Fluorescence competitive binding assay (1-NPN displacement), wildtype PxutCSP19

// solved cases for IC50 follow
1) COP(=O)(NC(C)=O)SC (centres unmarked) [Acephate, reference compound] = > 20 µM
2) OCCc1ccccc1 [Phenethyl alcohol] = > 20 µM

Problem: Indicate the recorded IC50 value for this molecule: C=C/C(C)=C/CC=C(C)C [Ocimene]
Result: 31.3 µM

Problem: Indicate the recorded IC50 value for this molecule: CCCCCCO [1-Hexanol]
Result: > 20 µM

Problem: Indicate the recorded IC50 value for this molecule: O=[N+]([O-])NC1=NCCN1Cc1ccc(Cl)nc1 [Imidacloprid, reference compound]
Result: > 20 µM

Problem: Indicate the recorded IC50 value for this molecule: C=C1CCC2CC1C2(C)C (stereo not drawn) [β-Pinene]
Result: > 20 µM

Problem: Indicate the recorded IC50 value for this molecule: O=C(NC(=O)c1c(F)cccc1F)Nc1cc(Cl)c(Oc2ncc(C(F)(F)F)cc2Cl)c(Cl)c1 [Chlorfluazuron]
Result: 11.9 µM

---

tested-system: T1, PxutCSP19-T1 (Papilio xuthus, UniProt A0A194QJK0)
T1 sequence (A0A194QJK0 35-142): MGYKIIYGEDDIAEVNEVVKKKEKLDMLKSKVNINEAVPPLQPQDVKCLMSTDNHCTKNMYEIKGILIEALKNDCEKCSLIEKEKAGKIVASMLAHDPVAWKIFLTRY
procedure-summary: Fluorescence competitive binding assay (1-NPN displacement), truncated PxutCSP19-T1
conditions: T1; read-out: IC50
Listed here are compounds together with their documented IC50.
// note: answer is a bare numeric in µM

// solved cases for IC50 follow
1) O=C(NC(=O)c1c(F)cccc1F)Nc1cc(Cl)c(Oc2ncc(C(F)(F)F)cc2Cl)c(Cl)c1 [Chlorfluazuron] = 12.7
2) C=C/C(C)=C/CC=C(C)C [Ocimene] = 31.7
3) CN(C)C(CSS(=O)(=O)O)CSS(=O)(=O)O [Monosultap] = 17.6
4) C=CC(C)(O)CCC=C(C)C (centres unmarked) [Linalool] = 33.1

Problem: Indicate the recorded IC50 value for this compound: CC(C)=CCC/C(C)=C\CO [Nerol]
Result: 34.7

Problem: Indicate the recorded IC50 value for this compound: CCOCn1c(-c2ccc(Cl)cc2)c(C#N)c(Br)c1C(F)(F)F [Chlorfenapyr]
Result: 10.3

Problem: Indicate the recorded IC50 value for this compound: COc1cc(C=O)cc(OC)c1O [Syringaldehyde]
Result: 28.1

Problem: Indicate the recorded IC50 value for this compound: CCCCCCCCO [1-Octanol]
Result: 34.5

Problem: Indicate the recorded IC50 value for this compound: CC1=CCC(=C(C)C)CC1 [Terpinolene]
Result: 33.6

Problem: Indicate the recorded IC50 value for this compound: O=C(NC(=O)c1c(F)cccc1F)Nc1cc(Cl)c(OC(F)(F)C(F)F)c(Cl)c1 [Hexaflumuron]
Result: 12.4

Problem: Indicate the recorded IC50 value for this compound: COC(=O)N(C(=O)N1CO[C@@]2(C(=O)OC)Cc3cc(Cl)ccc3C2=N1)c1ccc(OC(F)(F)F)cc1 [Indoxacarb]
Result: 11.3

---

tested-system: PxutCSP19 (Papilio xuthus, UniProt A0A194QJK0)
procedure-summary: Fluorescence competitive binding assay (1-NPN displacement), wildtype PxutCSP19
conditions: read-out: F.D. (fluorescent displacement rate of ligands), Wildtype (WT); ligand at 20 μM; PxutCSP19/1-NPN each 2 μM; NB = no binding
Listed here are molecules together with their documented inhibition at 20 µM.
// note: answer is a bare numeric in %

// solved cases for inhibition at 20 µM follow
1) C=C1CCC2(C(C)C)CC12 (stereo not shown) = 33.5
2) CCC/C=C/CO [(E)-2-Hexen-1-ol] = 35.6
3) CC1(C)[C@H](C(=O)O[C@H](C#N)c2cccc(Oc3ccccc3)c2)[C@@H]1C=C(Br)Br [Deltamethrin, reference compound] = 39.3
4) COC(=O)N(C(=O)N1CO[C@@]2(C(=O)OC)Cc3cc(Cl)ccc3C2=N1)c1ccc(OC(F)(F)F)cc1 = 61.5
5) C/C(=N\C#N)N(C)Cc1ccc(Cl)nc1 [Acetamiprid, reference compound] = 42.9
6) CC(C)=CCC/C(C)=C/CC/C(C)=C/CO = 27

Problem: Indicate the recorded inhibition at 20 µM value for this molecule: CN1COCN(Cc2cnc(Cl)s2)/C1=N\[N+](=O)[O-] [Thiamethoxam, reference compound]
Result: 44.6

Problem: Indicate the recorded inhibition at 20 µM value for this molecule: CC1=CCC2CC1C2(C)C (stereo not shown)
Result: 34.6
